The compounds listed here are annotated with their composite z-score.
- ASSAYED TARGET: Neurogenic locus notch homolog protein 3 (Homo sapiens)
- TEST: NOTCH3 binders on small-molecule microarray, primary screen, biochemical, 635/667 nm fluorescence (AID 1096)
- TEST CONTEXT: NOTCH3 binding, 635 nm fluorescence, higher = more signal
Output spec: single numeric token, no unit.

1. O=C(O)[C@H]1C[C@H]2C(=O)N3CCC[C@H]3C(=O)N2[C@H]1c1cccc(OCCO)c1 :: 0.237
2. CCCCC(CC)C(O)C1C=CC2C(=O)N(c3ccccc3)C(=O)C2N1Nc1ccc([N+](=O)[O-])cc1 (stereo not given) :: 1.03
3. COc1c(C)cc(-c2cc3c(c(-c4ccccc4)n2)[Si](C(C)C)(C(C)C)OC3)cc1C :: -0.263

Reading of composite z-score for COc1ccc([Si](C)(C)[C@H]2[C@H](CCn3cc(CCO)nn3)O[C@@]3(C(=O)N(Cc4ccc(N5C(=O)c6cccc7cccc5c67)cc4)c4ccccc43)[C@@H]2C)cc1 with Neurogenic locus notch homolog protein 3 (Homo sapiens): 1.09

Reading of composite z-score for CN(C)CCCNC(=O)[C@@H]1c2ccccc2C(=O)N(Cc2ccc(OC(F)(F)F)cc2)[C@H]1c1ccc(CO)cc1 with Neurogenic locus notch homolog protein 3 (Homo sapiens): 0.951

Reading of composite z-score for O=C(NC1CC1)[C@@H]1c2ccccc2C(=O)N(Cc2ccccc2)[C@H]1c1ccc(CO)cc1 with Neurogenic locus notch homolog protein 3 (Homo sapiens): -0.0341

Reading of composite z-score for C=C(C(=O)CC[C@H](OC(=O)c1cccnc1)c1ccc(CO)o1)C(C)C with Neurogenic locus notch homolog protein 3 (Homo sapiens): 0.623

Reading of composite z-score for CC(=O)N1Cc2ccccc2C[C@]2(N=C(c3ccc(OCCCO)cc3)O[C@@H]2c2ccccc2)C1=O with Neurogenic locus notch homolog protein 3 (Homo sapiens): 1.07

Reading of composite z-score for CCOC(=CC(=O)OC)CC(O)c1cccc(Cl)c1 (stereo not given) with Neurogenic locus notch homolog protein 3 (Homo sapiens): 0.27

Reading of composite z-score for C=CCN1C(=O)[C@@]2(O[C@@H](CCO)[C@H]([Si](C)(C)c3ccc(OC)cc3)[C@H]2C)c2cc(N3C(=O)c4ccccc4Oc4ccccc43)ccc21 with Neurogenic locus notch homolog protein 3 (Homo sapiens): 0.612

Reading of composite z-score for O=C1c2ccccc2[C@](Cc2ccccc2I)(C(=O)NCc2ccccc2)[C@H](c2ccc(CO)cc2)N1C1CCCCC1 with Neurogenic locus notch homolog protein 3 (Homo sapiens): 0.918

----------
- Tested on: Sonic hedgehog protein (Shh)
- TEST: small-molecule binders of Shh protein, primary screen, biochemical, small-molecule microarray, 635/667 nm fluorescence (AID 1151);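 further: Shh protein binding to compounds spotted on small-molecule microarray slides; score combines spot fluorescence intensity with signal-to-noise across triplicate slides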
- TEST CONTEXT: small-molecule microarray binding, 635 nm fluorescence; higher = more signal
// label = class 1 if composite z-score is not less than 0.6, otherwise class 0

Use these answered entries as a reference point.
1) O=C1OCCC=C[C@H]2OC34C=CCN(c5ccc(Cl)cc5)C(=O)[C@H]3N(CCCCCO)C(=O)[C@@H]4C12 (some centres undefined) :: class 0
2) COc1c(C)cc(-c2cc3c(c(Cc4ccccc4)n2)[Si](C(C)C)(C(C)C)OC3)cc1C :: class 0
3) CCCC[C@@H]1C[C@H]1[C@@H](NC(=O)c1cccnc1)c1ccc(-c2ccccc2)cc1 :: class 0
4) COc1ccc(NN2C(C(O)c3ccccn3)C=CC3C(=O)N(C4CCCCC4)C(=O)C32)cc1 (centres undefined) :: class 0
5) C=C(CCCC)/C(=C/C[C@@H](OC(C)=O)c1ccc(CO)o1)c1cc(C(=O)OC)ccc1OC :: class 1

In: Please tell me: is the compound O=C(O)[C@H]1C[C@H]2C(=O)N3CCC[C@H]3C(=O)N2[C@H]1c1cccc(OCCO)c1 at or over 0.6 in terms of composite z-score?
Out: class 1

In: Please tell me: is the compound CC(C)C(CO)N1C(=O)[C@]2(C)C3C(=O)OCCC/C=C\[C@H]3OC23C=CCN(c2ccc(Cl)cc2)C(=O)[C@@H]13 (some centres undefined) at or over 0.6 in terms of composite z-score?
Out: class 0

In: Please tell me: is the compound O=C1c2ccccc2[C@@]2(Cc3ccccc3N(C3CC3)C2=O)[C@H](c2ccc(CO)cc2)N1C1CCCCC1 at or over 0.6 in terms of composite z-score?
Out: class 0

In: Please tell me: is the compound C=CCNC(=O)[C@@H]1[C@H]2C(=O)O[C@H](c3ccccc3)[C@H](c3ccccc3)N2[C@H](c2ccccc2OCCO)[C@@]12C(=O)N(C(=O)OCCOC)c1ccc(C#CC3=CCCCC3)cc12 at or over 0.6 in terms of composite z-score?
Out: class 1

In: Please tell me: is the compound COCCOC(=O)N1C(=O)[C@@]2(c3cc(C#CC4(O)CCCCCC4)ccc31)[C@H](c1ccccc1OCCO)N1[C@H](c3ccccc3)[C@H](c3ccccc3)OC(=O)[C@H]1[C@@H]2C(N)=O at or over 0.6 in terms of composite z-score?
Out: class 1

In: Please tell me: is the compound CO[C@H]1O[C@H](CO)[C@@H](OC(=O)Nc2ccccc2-c2ccccc2)[C@H](OC(=O)Nc2ccc3c(c2)OCO3)[C@@H]1OC(=O)Nc1ccc2c(c1)OCO2 at or over 0.6 in terms of composite z-score?
Out: class 1

In: Please tell me: is the compound CCN(CC)c1ccc(N2CC=CC34O[C@@H]5/C=C\CCC(C)OC(=O)C5[C@H]3C(=O)N(CCO)[C@@H]4C2=O)cc1 (some centres undefined) at or over 0.6 in terms of composite z-score?
Out: class 0

----------
- TEST: small-molecule binders of probe aNOTCH2, primary screen, biochemical, small-molecule microarray, 635/667 nm fluorescence (AID 1121);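 further: score merges feature fluorescence read at 667 nm with its signal to noise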
- TEST CONTEXT: higher = more signal
// label = fulfilled if composite z-score is not less than -0.1, otherwise not fulfilled

1. CC(C)CNC(=O)[C@@]1(c2ccc([N+](=O)[O-])cc2)CC(=O)N(C2CCCCC2)[C@@H]1c1ccc(CO)cc1I :: fulfilled

In: Please tell me: is the compound CCOC(=O)C1=C[C@@H](c2ccccc2)N(S(=O)(=O)c2ccc(C)cc2)[C@H]1c1cccc(Cl)c1 at or over -0.1 in terms of composite z-score?
Out: fulfilled

In: Please tell me: is the compound CC(C)CN1C(=O)[C@@]2(Cc3ccccc31)c1ccccc1C(=O)N(Cc1ccccc1C(F)(F)F)[C@H]2c1ccc(CO)cc1 at or over -0.1 in terms of composite z-score?
Out: not fulfilled

In: Please tell me: is the compound CCCN1C(=O)[C@]2(Cc3ccccc3)N=C(c3ccc(OCCCO)cc3)O[C@@H]2c2ccccc21 at or over -0.1 in terms of composite z-score?
Out: not fulfilled

In: Please tell me: is the compound CCCCN1CC=CC23O[C@@H]4C=CCOC(=O)[C@@H]4[C@H]2C(=O)N(CCCO)[C@@H]3C1=O (stereo partly drawn) at or over -0.1 in terms of composite z-score?
Out: not fulfilled

In: Please tell me: is the compound C[C@H]1C2=C3C(CC[C@H]4C(OCc5ccc(F)cc5C(F)(F)F)OC[C@](C)([C@@H]34)N(C(=O)OC(C)(C)C)C2)C2COC(=O)OCC21 (stereo partly drawn) at or over -0.1 in terms of composite z-score?
Out: fulfilled

In: Please tell me: is the compound CCC[C@@H]1C[C@@]1(CCC)[C@@H](NP(=O)(c1ccccc1)c1ccccc1)c1ccc(Cl)cc1 at or over -0.1 in terms of composite z-score?
Out: fulfilled

In: Please tell me: is the compound CC=CC(O)C1C=CC2C(=O)N(c3ccccc3)C(=O)C2N1Nc1ccc([N+](=O)[O-])cc1 (stereo not drawn) at or over -0.1 in terms of composite z-score?
Out: not fulfilled

----------
The compounds listed here are annotated with their z-score.
- TEST: PSAC antagonists in infected red cells, primary screen, cell-based, P. falciparum Indochina, OD700, 2 h (AID 1155);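 further: lysis reports solute entry through the parasite surface anion channel PSAC; channel blockers reduce lysis of infected cells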
- TEST CONTEXT: P. falciparum Indochina infected erythrocytes, osmotic lysis OD700; higher = more signal, called active from +8 up or from −8 down
Output spec: single numeric token, no unit.

Sample records with z-score:
1. Cc1c(NC(=O)/C(C#N)=C/C=C/c2ccccc2[N+](=O)[O-])c(=O)n(-c2ccccc2)n1C :: 0.548
2. C[C@]12C(=O)N(CCCCCCO)[C@@H]3C(=O)N(c4ccc(Cl)cc4)CC=CC31O[C@@H]1/C=C\CCCOC(=O)C12 (stereo not given in full) :: -1.32
3. COc1cc(CO)cc(I)c1O[C@H]1C=C(C(=O)NCCO)C[C@@H](NCc2ccccc2F)[C@@H]1O :: 4.37
4. NC(N)=NCc1cn(CCc2c[nH]c3ccccc23)nn1 :: 0.078
5. COC(=O)c1c(CC[C@@H](CO)NC(=O)N[C@H](Cn2cc(-c3ccccc3C)nn2)C(C)C)oc(C(C)=O)c1C(=O)OC :: -0.0484
6. O=C(N1CCCCC1)[C@@]1(Cc2ccccc2)COC(c2ccc(OCCCO)cc2)=N1 :: 3.44
7. O=C1C[C@]2(c3ccc([N+](=O)[O-])cc3)C(=O)N(Cc3ccccc3)c3cc(CO)ccc3[C@H]2N1CC12CC3CC(CC(C3)C1)C2 :: 0.37
8. CCOc1cc(C(O)C2C=CC3C(=O)N(C)C(=O)C3N2N2CCCCC2)ccc1O (stereo not given) :: 1.66

Reported z-score of COC(=O)[C@]1(CCS(=O)(=O)c2ccccc2)N=C(c2ccc(OCCCO)cc2)O[C@@H]1c1ccccc1CN=[N+]=[N-] : 28

Reported z-score of CC(C)(C)OC(=O)CC[C@]1(C(=O)N2CCOCC2)N=C(c2ccc(OCCCO)cc2)O[C@H]1c1ccccc1 : 5.18

Reported z-score of Cc1ccc(S[C@]2(C(=O)NCCN3CCOCC3)CC(=O)N(Cc3ccccc3C(F)(F)F)[C@@H]2c2ccc(CO)cc2I)cc1 : 0.636

Reported z-score of CCOC(=O)C1=CC[C@@H](c2ccccc2)N(S(=O)(=O)c2ccc(C)cc2)C1 : 0.596

Reported z-score of COC(=O)[C@@]1(Cc2ccccc2)[C@H]2c3cc(C(=O)N4CCCC4)n(Cc4ccsc4Br)c3C[C@H]2CN1C(=O)c1ccccc1 : 1.07

Reported z-score of CC(C)C(O)C1C=CC2C(=O)N(C)C(=O)C2N1Nc1ccccc1 (stereo not given) : 1.18

Reported z-score of CCOC(=O)C1=CC[C@@H](c2ccc([N+](=O)[O-])cc2)N(S(=O)(=O)c2ccc(C)cc2)[C@H]1c1ccccc1 : 1.6

All figures here come from PubChem BioAssay.
